Exercise: state measured pKi for each of the binders provided.
- target_entity: CAL PDZ domain (UniProt Q9HD26-2 278-362)
- experiment_description: fluorescence polarisation
Answers are plain numbers, as −log10 of the molar value.

1) CDGQMQLVTSL [C-CL1_(10)]    4.05

List pKi for every entry below, keeping the order given.
1. CEVYLLNSTTL [C-ClC3B10]
2. CQPRTWLQSPV [C-RTKN10]
3. CAPIAGFSSFV [C-SDK2_(10)]

4.03
3.64
3.82

List pKi for every entry below, keeping the order given.
1. CRPGFASESKV [C-β1AR10]
2. CHPHSHSTTRV [C-NLG10]

1: 3.29; 2: 3.80

// data source = paper PMC2582146
